All values here come from patent US20230272056A1.

koff values by entry
Target: T1, human LAP-TGFB1 Fc fusion (human)
T1 construct: also called human LAP-TGFβ1-Fc; human LAP-TGFβ-Fc isoform 1
T1 sequence (chain, as listed by the source limits assumed): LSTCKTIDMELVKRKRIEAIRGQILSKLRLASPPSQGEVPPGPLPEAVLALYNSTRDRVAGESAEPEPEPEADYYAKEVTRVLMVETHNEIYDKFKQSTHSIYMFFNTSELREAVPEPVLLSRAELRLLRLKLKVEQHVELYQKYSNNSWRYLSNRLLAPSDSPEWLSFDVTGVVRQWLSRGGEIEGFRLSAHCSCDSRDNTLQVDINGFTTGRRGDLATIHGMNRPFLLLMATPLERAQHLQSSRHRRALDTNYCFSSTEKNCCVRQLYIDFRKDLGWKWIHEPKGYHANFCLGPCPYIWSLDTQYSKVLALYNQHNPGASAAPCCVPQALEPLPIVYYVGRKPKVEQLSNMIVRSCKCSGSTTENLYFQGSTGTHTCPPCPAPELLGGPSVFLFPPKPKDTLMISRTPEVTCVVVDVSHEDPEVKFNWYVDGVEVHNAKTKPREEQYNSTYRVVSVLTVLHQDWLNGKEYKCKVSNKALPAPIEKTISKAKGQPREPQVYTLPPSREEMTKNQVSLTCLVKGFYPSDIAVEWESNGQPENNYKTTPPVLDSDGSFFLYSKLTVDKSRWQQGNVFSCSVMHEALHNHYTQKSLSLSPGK
Assay: SPR pH 6.0, antigen-Fc captured, Fab analyte

{"binder": "66BLH (Fab, V domains shown, also called 18BLM Fab) VH: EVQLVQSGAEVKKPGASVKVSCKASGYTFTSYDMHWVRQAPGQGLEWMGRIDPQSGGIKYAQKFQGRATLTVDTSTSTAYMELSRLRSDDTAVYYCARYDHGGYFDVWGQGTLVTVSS VL: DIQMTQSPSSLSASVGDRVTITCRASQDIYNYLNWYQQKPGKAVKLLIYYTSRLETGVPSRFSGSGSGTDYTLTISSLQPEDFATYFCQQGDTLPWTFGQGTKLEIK", "koff, s⁻¹": 0.0221}
{"binder": "58BLH (Fab, V domains shown, also called 10BLM Fab) VH: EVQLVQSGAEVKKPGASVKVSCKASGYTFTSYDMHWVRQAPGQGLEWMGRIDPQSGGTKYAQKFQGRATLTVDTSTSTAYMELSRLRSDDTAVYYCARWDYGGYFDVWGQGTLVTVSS VL: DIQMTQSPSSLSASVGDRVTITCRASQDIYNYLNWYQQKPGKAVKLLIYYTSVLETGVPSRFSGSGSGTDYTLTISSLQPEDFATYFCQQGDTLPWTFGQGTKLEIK", "koff, s⁻¹": 0.000591}
{"binder": "62BLH (Fab, V domains shown, also called 14BLM Fab) VH: EVQLVQSGAEVKKPGASVKVSCKASGYTFTSYDTHWVRQAPGQGLEWMGRIDPQSGGIKYAQKFQGRATLTVDTSTSTAYMELSRLRSDDTAVYYCARWDYGGYFDVWGQGTLVTVSS VL: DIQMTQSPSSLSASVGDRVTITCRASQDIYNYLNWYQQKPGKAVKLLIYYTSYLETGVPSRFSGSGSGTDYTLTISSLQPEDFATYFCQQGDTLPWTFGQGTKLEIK", "koff, s⁻¹": 0.00168}
